- System: HepG2
- ASSAY PROCEDURE: cytotoxicity call (relative viability < 0.9)
- CONDITION CONTEXT: 10 µM
Out of some 39,000 compounds screened, about 3,300 (8.5%) were called active. Only a selection was taken, and actives are over-represented in it overall.
Outcome codes: active, inactive

INSERT INTO measurements (molecule, assigned_label) VALUES
  ('COCCOC(=O)N1C(=O)[C@@]2(c3cc(C#CC4(O)CCCCCC4)ccc31)[C@H](c1ccccc1OCCO)N1[C@H](c3ccccc3)[C@H](c3ccccc3)OC(=O)[C@H]1[C@@H]2C(=O)N1CCc2cc(OC)c(OC)cc2C1', 'inactive'),
  ('COc1cccc(NC(=O)N[C@@H]2C=C[C@H](CC(=O)N3CCN(C)CC3)O[C@H]2CO)c1', 'inactive'),
  ('Cc1ccc(S(=O)(=O)N(C)C[C@@H]2Oc3ccc(NS(=O)(=O)c4c(C)noc4C)cc3CC(=O)N([C@@H](C)CO)C[C@H]2C)cc1', 'inactive'),
  ('COc1ccc(S(=O)(=O)N[C@H]2CC[C@@H](CC(=O)N3CCN(c4ccccc4)CC3)O[C@H]2CO)cc1', 'inactive'),
  ('CCc1ccc(-c2cc3c(=O)n(CC(=O)NCCN4CCOCC4)nc(C)n3n2)cc1', 'inactive'),
  ('Cc1cccc2c3c(ccc12)C1=C(C(=O)C3=O)C(C)CO1 (stereo not drawn)', 'active'),
  ('O=C(CCCCC(=O)N/N=C/c1cc(I)cc(I)c1O)NO', 'inactive'),
  ('CCNc1ncnc2c1nnn2C', 'inactive'),
  ('C[C@@H]1CN([C@H](C)CO)C(=O)Cc2cc(NC(=O)Nc3ccccc3)ccc2O[C@H]1CN(C)Cc1ccc(C(F)(F)F)cc1', 'inactive'),
  ('C[C@@H]1CN([C@@H](C)CO)C(=O)c2cccc(NC(=O)C3CCCCC3)c2O[C@@H]1CN(C)Cc1ccc(C(F)(F)F)cc1', 'inactive'),
  ('C[C@@H]1CN([C@@H](C)CO)C(=O)Cc2cc(NC(=O)Nc3ccccc3)ccc2O[C@@H]1CN(C)Cc1ccc(C(F)(F)F)cc1', 'active'),
  ('C[C@H]1CN([C@@H](C)CO)C(=O)Cc2cc(NC(=O)Nc3ccccc3)ccc2O[C@@H]1CN(C)Cc1ccc(C(F)(F)F)cc1', 'active'),
  ('C[C@H]1CN([C@@H](C)CO)C(=O)CCCn2nncc2CO[C@@H]1CN(C)C(=O)C1CC1', 'inactive'),
  ('Cn1c(=O)c2c(nc(N3CCCCC3)n2CCN)n(C)c1=O', 'inactive'),
  ('Cc1noc(C)c1S(=O)(=O)N(C)C[C@H]1OCCCC[C@@H](C)Oc2ccc(NC(=O)Nc3ccc(F)cc3)cc2C(=O)N([C@H](C)CO)C[C@@H]1C', 'inactive'),
  ('CN(C)CCN1C(=O)CO[C@H]2CN(C(=O)NCc3cccnc3)C[C@@H]21', 'inactive'),
  ('CN1CCN(C(=O)C[C@H]2CC[C@H](NC(=O)Cc3ccccn3)[C@@H](CO)O2)CC1', 'inactive'),
  ('Nc1ccc(S(=O)(=O)c2ccc(N)cc2)cc1', 'inactive'),
  ('Nc1ccc2cc3ccc(N)cc3nc2c1.O=S(=O)(O)O', 'active'),
  ('C[C@H]1CN([C@@H](C)CO)C(=O)Cc2cc(NC(=O)Nc3ccccc3)ccc2O[C@H]1CN(C)Cc1ccc(C(F)(F)F)cc1', 'active'),
  ('COc1ccc(NC(=O)N(C)C[C@H]2OCCCC[C@@H](C)Oc3ccc(NS(=O)(=O)c4c(C)noc4C)cc3C(=O)N([C@H](C)CO)C[C@@H]2C)cc1', 'inactive'),
  ('CCC(=O)N(C)C[C@H]1Oc2ncc(C#C[C@@H](C)O)cc2C(=O)N([C@@H](C)CO)C[C@H]1C', 'inactive'),
  ('COc1cccc(-c2cn(CC[C@@H]3CC[C@H](NC(=O)CN(C)C)[C@H](CO)O3)nn2)c1', 'inactive'),
  ('Cc1cccc2c1OCC[C@@H](N)C2=O', 'inactive'),
  ('COc1ccc(CN(C)C[C@@H]2OCCCC[C@@H](C)Oc3ccc(NC(=O)Cc4ccccc4)cc3C(=O)N([C@H](C)CO)C[C@H]2C)cc1', 'inactive'),
  ('C[C@@H](N)c1cnn(-c2ccccc2F)c1', 'inactive'),
  ('CC#CCn1c(N2CCC[C@@H](N)C2)nc2c1c(=O)n(Cc1nc(C)c3ccccc3n1)c(=O)n2C', 'active'),
  ('CC1COC2=C1C(=O)C(=O)c1c2ccc2c1CCCC2(C)C (stereo not drawn)', 'active'),
  ('Cc1noc(C)c1NC(=O)N(C)C[C@@H]1Oc2ccc(NS(=O)(=O)c3ccccc3)cc2CC(=O)N([C@H](C)CO)C[C@@H]1C', 'inactive'),
  ('O=C(O)c1cc(O)c2cccc(O)c2n1', 'inactive'),
  ('C[C@@H]1CN([C@@H](C)CO)C(=O)c2cccc(NS(=O)(=O)c3ccccc3)c2O[C@@H]1CN(C)S(=O)(=O)c1cccs1', 'inactive'),
  ('COc1cccc(S(=O)(=O)Nc2ccc3c(c2)[C@@H]2C[C@H](CC(=O)NCCc4ccccc4)O[C@@H](CO)[C@@H]2O3)c1', 'inactive'),
  ('Cc1noc(C)c1NC(=O)Nc1ccc2c(c1)C(=O)N([C@H](C)CO)C[C@H](C)[C@H](CN(C)C(=O)Nc1ccc(C(F)(F)F)cc1)OCCCC[C@H](C)O2', 'inactive');
